Read-out: Human Leukocyte Antigen - DR isotype (HLADR), HLA-DRA (gene 3122)
Test: BSK_BE3C_HLADR: BioMAP Diversity Plus: BE3C Assay for Human Leukocyte Antigen - DR isotype (HLADR) Biomarker Activity (AID 2283032)
Conditions: primary human bronchial epithelial cells; actives raise or lower the signal
Experimental: BSK_BE3C is a cell-based, multiplexed-readout assay that uses bronchial epithelial cell, a human lung primary cell, with measurements taken at 24 hours after chemical dosing in a 96-well plate.BSK_BE3C_HLADR is an assay component measured in the BSK_BE3C assay. It measures HLA-DR antibody related to regulation of gene expression using ELISA technology.Data from the assay component BSK_BE3C_HLADR was analyzed into 1 assay endpoint. […]
The source made the active and inactive calls. Rule for the calls: active = hit-call score of the fitted dose curve at least 0.9, where 1 is the maximum; inactive = score below 0.9.
Returns: one label drawn from label 1 = active, label 0 = inactive

Q: Would you mind telling me which call this test gave Oc1cccc2cccnc12 ?
Result: label 1

Q: Entry COC(=O)c1sccc1S(=O)(=O)NC(=O)Nc1nc(C)nc(OC)n1 : call = ?
Result: label 0

Q: Could you please tell me the result logged for CCC(=O)C(CC(C)N(C)C)(c1ccccc1)c1ccccc1 (configuration not stated) in this assay?
Result: label 0

Q: Just curious, what result did OCc1ccco1 get here?
Result: label 0

Q: Name the outcome recorded for C[C@]12CCC(=O)C[C@@H]1CC[C@@H]1[C@@H]2CC[C@]2(C)[C@@H](O)CC[C@@H]12 in the assay.
Result: label 0

Q: Give the logged outcome of this assay for the following compound: O=C(OC1CCCCC1)c1ccccc1C(=O)OC1CCCCC1
Result: label 1

Q: # fetch the recorded call for CCCCCCCCc1ccc(O)cc1 here
Result: label 1

Q: Look up the recorded call for CCCCC(CC)CO[N+](=O)[O-] (configuration not stated) in this test.
Result: label 1

Q: Can you look up the reported call for O=C(O)CCC(F)(C(F)(F)F)C(F)(F)F for me?
Result: label 0

Q: For C=CC(=O)OCCCCCC(C)C , what call appears in the results of this test?
Result: label 0

Q: Entry CC(C)(c1ccccc1)c1ccc(O)c(C(C)(C)c2ccccc2)c1 : call = ?
Result: label 1

Q: Please let me know the test result on file for Nc1ncc([N+](=O)[O-])s1 .
Result: label 0

Q: Fill in: this test's call for COP(=S)(OC)Oc1c(Cl)cc(C)cc1Cl is ___
Result: label 0

Q: Recorded call for Oc1c(I)cc(I)cc1I ?
Result: label 1

Q: In this assay, the call recorded for C[C@@H]1C[C@@H]([C@H](O)CC2CC(=O)NC(=O)C2)C(=O)[C@@H](C)C1 was what?
Result: label 1

Q: Answer briefly: the call reported for CCOP(=S)(OCC)SCSP(=S)(OCC)OCC in this assay.
Result: label 0

Q: Entry Oc1ccc(-c2ccccc2)cc1 : call = ?
Result: label 0

Q: In this assay, the call recorded for CCOP(=S)(OCC)Oc1ccc(S(C)=O)cc1 (configuration not stated) was what?
Result: label 0

Q: State the result this test recorded for O=[N+]([O-])c1ccc(O)c([N+](=O)[O-])c1 .
Result: label 0

Q: Which result was noted for this compound in the test: Nc1cccc2ccccc12
Result: label 0

Q: I would be grateful if you could indicate the recorded call for Cc1ccccc1N .
Result: label 0

Q: Outcome logged for NC(=S)Nc1ccccc1 in this assay:
Result: label 0
